Ref: paper PMC10836395

Biological target: CATPO T188I variant (Scytalidium thermophilum (Humicola insolens), UniProt M4GGR5, T207I)
Sequence (M4GGR5 entry or part of it T207I): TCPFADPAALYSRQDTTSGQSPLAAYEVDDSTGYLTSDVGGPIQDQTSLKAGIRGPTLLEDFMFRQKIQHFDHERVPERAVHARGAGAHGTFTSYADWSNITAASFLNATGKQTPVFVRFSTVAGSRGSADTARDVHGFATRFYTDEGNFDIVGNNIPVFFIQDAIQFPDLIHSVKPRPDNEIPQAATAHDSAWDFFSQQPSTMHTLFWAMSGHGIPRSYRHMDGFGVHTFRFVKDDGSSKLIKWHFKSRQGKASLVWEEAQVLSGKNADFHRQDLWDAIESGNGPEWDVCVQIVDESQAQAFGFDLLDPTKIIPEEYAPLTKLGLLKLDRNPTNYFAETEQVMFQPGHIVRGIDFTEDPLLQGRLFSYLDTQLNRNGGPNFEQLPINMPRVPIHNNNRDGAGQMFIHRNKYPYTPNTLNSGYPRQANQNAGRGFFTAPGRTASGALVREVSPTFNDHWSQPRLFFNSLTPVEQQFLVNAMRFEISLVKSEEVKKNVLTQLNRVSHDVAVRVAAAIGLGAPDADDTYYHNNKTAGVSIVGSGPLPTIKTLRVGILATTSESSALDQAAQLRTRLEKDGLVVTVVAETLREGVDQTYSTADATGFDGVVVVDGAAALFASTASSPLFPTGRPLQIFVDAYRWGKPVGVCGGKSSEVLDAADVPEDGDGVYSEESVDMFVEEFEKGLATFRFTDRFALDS
Experiment: biochemical
Settings: catechol oxidation by T188I; read-out: K i
pKi: −log10 of the molar value.
READOUT_LABEL: pKi

                                   compound                            assayed_system  reported
0  [N-]=[N+]=[N-].[Na+] [Sodium azide, sodium azide]  CATPO T188I variant (Scytalidium thermophilum (Humicola insolens), UniProt M4GGR5, T207I)      1.22
1         [F-].[Na+] [NaF, sodium fluoride]  CATPO T188I variant (Scytalidium thermophilum (Humicola insolens), UniProt M4GGR5, T207I)      2.24
